Observed IC50 values for NRAS (Homo sapiens (Human), UniProt P01111) are listed in what follows.
Give your result in µM as a bare value.

CCc1c(F)ccc2cc3[nH]nc(C)c3c(-c3nc4c5c(nc(OC[C@@]67CCCN6C[C@H](F)C7)nc5c3F)N3CCCOC[C@H]3CO4)c12 [Ex-6]
10
CCc1c(F)ccc2cc3[nH]ncc3c(-c3nc4c5c(nc(OC[C@@]67CCCN6C[C@H](F)C7)nc5c3F)N3CCCOC[C@H]3CO4)c12 [Ex-2]
7.02

--- query ---
I would be grateful if you could share the reported IC50 for CCc1c(F)ccc2cc3[nH]nc(C)c3c(-c3nc4c5c(nc(OC[C@@]67CCCN6C/C(=C\F)C7)nc5c3F)N3CCCOC[C@H]3CO4)c12 [Ex-7] .
8.98

----------
- study system: KRAS G12V (Homo sapiens (Human), UniProt P01116, G12V)
- Sequence (P01116 other isoform, or with tags, fused parts or gaps G12V (already in the parent)): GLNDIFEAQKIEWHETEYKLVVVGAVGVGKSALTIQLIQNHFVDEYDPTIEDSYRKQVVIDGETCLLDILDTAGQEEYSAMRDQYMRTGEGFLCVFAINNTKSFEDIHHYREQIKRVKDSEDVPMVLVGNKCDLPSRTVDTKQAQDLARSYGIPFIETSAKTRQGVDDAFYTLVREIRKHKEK
- method notes: SOS-catalyzed nucleotide exchange assay (GNE), KRAS G12V
- measurement context: TR-FRET, 60 min preincubation
measure name: IC50 (nM)
Give your result in nM as a bare value.

I would be grateful if you could share the reported IC50 for Fc1c(-c2c(C3CC3)c(Cl)cc3[nH]ncc23)nc2c3c(nc(OC[C@@]45CCCN4C[C@H](F)C5)nc13)N1CCCOC[C@H]1CO2 .
3

Another compound to check: CCc1c(F)ccc2cc3[nH]ncc3c(-c3nc4c5c(nc(OC[C@@]67CCCN6C[C@H](F)C7)nc5c3F)N3CCCOC[C@H]3CO4)c12
1.3

Another compound to check: CCc1c(F)ccc2cc3[nH]ncc3c(-c3nc4c5c(nc(OC[C@@]67CCCN6C/C(=C\F)C7)nc5c3F)N3CCCOC[C@H]3CO4)c12
0.83

Another compound to check: F/C=C1\CN2CCC[C@@]2(COc2nc3c4c(nc(-c5c(C6(F)CC6)c(Cl)cc6[nH]ncc56)c(F)c4n2)OC[C@@H]2COCCCN32)C1
0.98

----------
Documented IC50 across a set of compounds
- study system: KRAS G12D (Homo sapiens (Human), UniProt P01116, G12D)
- Sequence (P01116 other isoform, or with tags, fused parts or gaps G12D (already in the parent)): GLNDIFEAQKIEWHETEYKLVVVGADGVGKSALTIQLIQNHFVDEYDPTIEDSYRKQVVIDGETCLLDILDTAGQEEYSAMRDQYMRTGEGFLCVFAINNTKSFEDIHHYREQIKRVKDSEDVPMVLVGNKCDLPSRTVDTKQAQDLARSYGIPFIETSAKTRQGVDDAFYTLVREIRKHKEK
- method notes: SOS-catalyzed nucleotide exchange assay (GNE), KRAS G12D
- Type: biochemical
- measurement context: TR-FRET, 60 min preincubation
Give your result in nM as a bare value.

Here is how some compounds turned out for IC50.
CCc1c(F)ccc2cc3[nH]ncc3c(-c3nc4c5c(nc(OC[C@@]67CCCN6C[C@H](F)C7)nc5c3F)N3CCCOC[C@H]3CO4)c12
0.65
CCc1c(F)ccc2cc3[nH]nc(C)c3c(-c3nc4c5c(nc(OC[C@@]67CCCN6C[C@H](F)C7)nc5c3F)N3CCCOC[C@H]3CO4)c12
1.3

--- query ---
Give IC50 (KRAS G12D (Homo sapiens (Human), UniProt P01116, G12D)) of the following compound: CCc1c(F)ccc2cc3[nH]nc(C)c3c(-c3nc4c5c(nc(OC[C@@]67CCCN6C/C(=C\F)C7)nc5c3F)N3CCCOC[C@H]3CO4)c12
1.4

----------
Documented clearance across a set of molecules
- method notes: Dog IV/PO pharmacokinetic studies
- Assay type: in vivo
- measurement context: male, plasma, IV 0.25 mg/kg (Ex-2 0.05 mg/kg), read-out: CLp

CCc1c(F)ccc2cc3[nH]nc(C)c3c(-c3nc4c5c(nc(OC[C@@]67CCCN6C[C@H](F)C7)nc5c3F)N3CCCOC[C@H]3CO4)c12 [Ex-6]
8 mL/min/kg

--- query ---
I would be grateful if you could share the reported clearance for Fc1c(-c2c(C3CC3)c(Cl)cc3[nH]ncc23)nc2c3c(nc(OC[C@@]45CCCN4C[C@H](F)C5)nc13)N1CCCOC[C@H]1CO2 [Ex-3] .
10 mL/min/kg
